Every entry's value here was drawn from paper PMC8162404.

Can you tell me pKd for the items I'm about to list?
Biological target: S100B (Homo sapiens)
Construct: made in house; host or cells: Escherichia coli BL21(DE3)
Sequence (P04271 whole entry): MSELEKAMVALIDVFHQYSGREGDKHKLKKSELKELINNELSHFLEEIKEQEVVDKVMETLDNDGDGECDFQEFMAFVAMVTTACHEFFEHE
Assay: Pull-down assay with immobilized protein and LSM libraries
Type: binding
Settings: H12 library; 1:1 binding assumed; read-out: Surface mapping KD (apparent)
// pKd is dimensionless: -log10 of concentration (M)

Query string: Consider the molecule shown here: `CC[C@H](C)[C@@H](CC(=O)N[C@H]1CCC[C@@H]1C(=O)N[C@H]1CCC[C@@H]1C(=O)N[C@H](CC(=O)N[C@H]1CCC[C@@H]1C(=O)N[C@H]1CCC[C@@H]1C(N)=O)C(C)C)NC(=O)[C@H]1CCC[C@@H]1NC(=O)[C@H]1CCC[C@@H]1N` What is its recorded pKd?
Result string: 4.24

Query string: Another molecule to check: `CC(C)C[C@@H](CC(=O)N[C@H]1CCC[C@@H]1C(=O)N[C@H]1CCC[C@@H]1C(N)=O)NC(=O)[C@H]1CCC[C@@H]1NC(=O)[C@H]1CCC[C@@H]1NC(=O)C[C@H](Cc1c[nH]c2ccccc12)NC(=O)[C@H]1CCC[C@@H]1NC(=O)[C@H]1CCC[C@@H]1N`
Result string: 4.68

Query string: Another molecule to check: `N=C(N)NCCC[C@@H](CC(=O)N[C@H]1CCC[C@@H]1C(=O)N[C@H]1CCC[C@@H]1C(=O)N[C@H](CC(=O)N[C@H]1CCC[C@@H]1C(=O)N[C@H]1CCC[C@@H]1C(N)=O)Cc1ccccc1)NC(=O)[C@H]1CCC[C@@H]1NC(=O)[C@H]1CCC[C@@H]1N`
Result string: 4.40

Query string: Another molecule to check: `CC(C)C[C@@H](CC(=O)N[C@H]1CCC[C@@H]1C(=O)N[C@H]1CCC[C@@H]1C(N)=O)NC(=O)[C@H]1CCC[C@@H]1NC(=O)[C@H]1CCC[C@@H]1NC(=O)C[C@@H](NC(=O)[C@H]1CCC[C@@H]1NC(=O)[C@H]1CCC[C@@H]1N)C(C)C`
Result string: 4.04

Query string: Another molecule to check: `CC[C@H](C)[C@@H](CC(=O)N[C@H]1CCC[C@@H]1C(=O)N[C@H]1CCC[C@@H]1C(=O)N[C@@H](CCCCN)CC(=O)N[C@H]1CCC[C@@H]1C(=O)N[C@H]1CCC[C@@H]1C(N)=O)NC(=O)[C@H]1CCC[C@@H]1NC(=O)[C@H]1CCC[C@@H]1N`
Result string: 4.06

Query string: Another molecule to check: `CSCC[C@@H](CC(=O)N[C@H]1CCC[C@@H]1C(=O)N[C@H]1CCC[C@@H]1C(N)=O)NC(=O)[C@H]1CCC[C@@H]1NC(=O)[C@H]1CCC[C@@H]1NC(=O)C[C@H](Cc1c[nH]c2ccccc12)NC(=O)[C@H]1CCC[C@@H]1NC(=O)[C@H]1CCC[C@@H]1N`
Result string: 4.70

Query string: Another molecule to check: `NC(=O)[C@H]1CCC[C@@H]1NC(=O)[C@H]1CCC[C@@H]1NC(=O)C[C@H](CC(=O)O)NC(=O)[C@H]1CCC[C@@H]1NC(=O)[C@H]1CCC[C@@H]1NC(=O)C[C@H](Cc1ccccc1)NC(=O)[C@H]1CCC[C@@H]1NC(=O)[C@H]1CCC[C@@H]1N`
Result string: 3.43

Query string: Another molecule to check: `NC(=O)[C@H]1CCC[C@@H]1NC(=O)[C@H]1CCC[C@@H]1NC(=O)C[C@H](Cc1ccc(O)cc1)NC(=O)[C@H]1CCC[C@@H]1NC(=O)[C@H]1CCC[C@@H]1NC(=O)C[C@H](Cc1c[nH]c2ccccc12)NC(=O)[C@H]1CCC[C@@H]1NC(=O)[C@H]1CCC[C@@H]1N`
Result string: 4.55
